- Tested on: P-gp
- measurement protocol: Western blot analysis of P-gp protein expression in drug-treated LS-180 cells
- condition notes: human, EC50 to up-regulate P-gp expression, following normalization to 100%
observed property: EC50 at 48 h

Form field EC50 at 48 h for item "C1CCc2nnnn2CC1" on P-gp: > 50 µM

* * *

- System: P-gp
- measurement protocol: in vitro
- condition notes: human, EC50 to up-regulate P-gp expression
observed property: EC50 at 48 h (µM)
One number for each entry, in µM.

The cases that follow already have their EC50 at 48 h on record.
molecule	target under test	units of measure	EC50 at 48 h
CO[C@H]1/C=C/O[C@@]2(C)Oc3c(C)c(O)c4c(O)c(c(/C=N/N5CCN(C)CC5)c(O)c4c3C2=O)NC(=O)/C(C)=C\C=C\[C@H](C)[C@H](O)[C@@H](C)[C@@H](O)[C@@H](C)[C@H](OC(C)=O)[C@@H]1C [Rifampicin]	P-gp	µM	5
C[C@@H]1C[C@H]2[C@@H]3CCC4=CC(=O)C=C[C@]4(C)[C@@]3(F)[C@@H](O)C[C@]2(C)[C@@]1(O)C(=O)CO [Dexamethasone, dexamethasone]	P-gp	µM	46

API: the following record is the query input.
The molecule identified as Cn1c(=O)c2c(ncn2C)n(C)c1=O [Caffeine, caffeine] registered its EC50 at 48 h at 9.1

* * *

- Test system: P-gp
- measurement protocol: in vitro
- condition notes: human, EC50 to up-regulate P-gp activity
observed property: EC50 at 48 h
Please provide the amount together with its unit, number first.

So, "C1CCc2nnnn2CC1" ? Its EC50 at 48 h was 11.8 µM

Source of measurements: paper PMC3172709
